Quick reference for normalised response among some compounds
Test system: CAL-120
testDetails: normalised response (% of control), CellTiter-Glo; higher = more viable cells (100 = DMSO, 0 = benzethonium chloride kill control)
assayContext: incubation time: 72 h
Give the value in % but do not write % after it.

Inquiry: Can you share its normalised response? I mean this compound: CCN(CC)CCOc1ccc(C(=C(Cl)c2ccccc2)c2ccccc2)cc1 [Clomifene] (1000 nM)
Reply text: 102

Inquiry: Can you share its normalised response? I mean this compound: O=NN(CCCl)C(=O)NC1CCCCC1 [Lomustine] (1000 nM)
Reply text: 100

Inquiry: Can you share its normalised response? I mean this compound: Cn1cc(C[C@@H](N)C(=O)O)c2ccccc21 [1-methyl-D-tryptophan] (500 nM)
Reply text: 105

Inquiry: Can you share its normalised response? I mean this compound: Cc1cc2c(F)c(Oc3ncnn4cc(OC[C@@H](C)O)c(C)c34)ccc2[nH]1 [Brivanib] (100 nM)
Reply text: 109

Inquiry: Can you share its normalised response? I mean this compound: NC(=O)NO [Hydroxyurea] (10 nM)
Reply text: 96.7

---

Quick reference for EC50, CellTiter-Glo among some compounds
Test system: CAL-85-1
assayContext: 72 h
Give the value in nM but do not write nM after it.

// known answers, use as guide
CCc1cnn2c(NCc3ccc[n+]([O-])c3)cc(N3CCCC[C@H]3CCO)nc12 [Dinaciclib]	5.42
CC[C@@H]1C(=O)N(C)c2cnc(Nc3ccc(C(=O)N[C@H]4CC[C@H](N5CCN(CC6CC6)CC5)CC4)cc3OC)nc2N1C(C)C [Volasertib]	8.51
CCCc1cc(C)[nH]c(=O)c1CNC(=O)c1cc(-c2ccnc(N3CCN(C)CC3)c2)cc2c1cnn2C(C)C [GSK343]	7160
CN1CCc2c(c3ccccc3n2Cc2ccc(C(=O)NO)cc2)C1 [Tubastatin A]	6160

Inquiry: Can you share its EC50, CellTiter-Glo? I mean this compound: COc1cc(Nc2ncc(F)c(Nc3ccc4c(n3)N(COP(=O)(O)O)C(=O)C(C)(C)O4)n2)cc(OC)c1OC [Fostamatinib]
Reply text: 1560

Inquiry: Can you share its EC50, CellTiter-Glo? I mean this compound: CO[C@H]1C[C@@H]2CC[C@@H](C)[C@@](O)(O2)C(=O)C(=O)N2CCCC[C@H]2C(=O)O[C@H]([C@H](C)C[C@@H]2CC[C@@H](O)[C@H](OC)C2)CC(=O)[C@H](C)/C=C(\C)[C@@H](O)[C@@H](OC)C(=O)[C@H](C)C[C@H](C)/C=C/C=C/C=C/1C [Sirolimus]
Reply text: 0.95

---

Quick reference for normalised viability among some compounds
System: CAL-148
testDetails: normalised viability (% of control), CellTiter-Blue; higher = more viable cells (about 100 = DMSO control)
assayContext: incubation time: 72 h
Give the value in % but do not write % after it.

Inquiry: Can you share its normalised viability? I mean this compound: COc1cc2c(Oc3ccc(NC(=O)C4(C(=O)Nc5ccc(F)cc5)CC4)cc3F)ccnc2cc1OCCCN1CCOCC1 [Foretinib] (300 nM)
Reply text: 91.6

Inquiry: Can you share its normalised viability? I mean this compound: CN1CCN(c2nc(C3=C(c4c[nH]c5ccccc45)C(=O)NC3=O)c3ccccc3n2)CC1 [Sotrastaurin] (3000 nM)
Reply text: 116

Inquiry: Can you share its normalised viability? I mean this compound: N[C@@H](Cc1ccc(N(CCCl)CCCl)cc1)C(=O)O [Melphalan] (297 nM)
Reply text: 100

Inquiry: Can you share its normalised viability? I mean this compound: C[C@@H](CN1CC(=O)NC(=O)C1)N1CC(=O)NC(=O)C1 [Dexrazoxane] (3000 nM)
Reply text: 96

---

Tested on: CAL-51
testDetails: normalised viability (% of control), CellTiter-Blue; higher = more viable cells (about 100 = DMSO control)
assayContext: incubation time: 72 h
Response field label takes true when normalised viability is strictly below 90% and false in all other cases.

CO[C@H]1C[C@@H]2CC[C@@H](C)[C@@](O)(O2)C(=O)C(=O)N2CCCC[C@H]2C(=O)O[C@H]([C@H](C)C[C@@H]2CC[C@@H](O)[C@H](OC)C2)CC(=O)[C@H](C)/C=C(\C)[C@@H](O)[C@@H](OC)C(=O)[C@H](C)C[C@H](C)/C=C/C=C/C=C/1C [Sirolimus] (30 nM)	true

Kindly consider the entry below.
Inquiry: In plain terms, does C[C@@H]1C[C@H]2[C@@H]3CCC4=CC(=O)C=C[C@]4(C)[C@@]3(F)[C@@H](O)C[C@]2(C)[C@@]1(O)C(=O)CO [Dexamethasone] (300 nM) come in under 90% for normalised viability?
Reply text: false

---

System: CAL-51
testDetails: normalised viability (% of control), CellTiter-Blue; higher = more viable cells (about 100 = DMSO control)
assayContext: incubation time: 72 h
Quick reference for normalised viability among some compounds
Give the value in % but do not write % after it.

// known answers, use as guide
Nc1nc(Cl)nc2c1ncn2[C@@H]1O[C@H](CO)[C@@H](O)[C@@H]1F [Clofarabine] (3000 nM)	15.4
CC/C(=C(\c1ccccc1)c1ccc(OCCN(C)C)cc1)c1ccccc1 [Tamoxifen] (3000 nM)	99.1
C[C@]12C=CC(=O)C=C1CC[C@@H]1[C@@H]2C(=O)C[C@@]2(C)[C@H]1CC[C@]2(O)C(=O)CO [Prednisone] (3000 nM)	102
CC(C)C[C@H](NC(=O)[C@H](CCc1ccccc1)NC(=O)CN1CCOCC1)C(=O)N[C@@H](Cc1ccccc1)C(=O)N[C@@H](CC(C)C)C(=O)[C@@]1(C)CO1 [Carfilzomib] (300 nM)	2.56

Next compound, please.
Inquiry: Can you share its normalised viability? I mean this compound: C[C@@H](CN1CC(=O)NC(=O)C1)N1CC(=O)NC(=O)C1 [Dexrazoxane] (3000 nM)
Reply text: 83.9

---

System: CAL-51
testDetails: normalised response (% of control), CellTox Green; higher = less cell death (100 = DMSO, 0 = benzethonium chloride kill control)
assayContext: incubation time: 72 h
measurementKind: normalised response (%)
Give the value in % but do not write % after it.

// known answers, use as guide
Nc1nc(Cl)nc2c1ncn2[C@@H]1O[C@H](CO)[C@@H](O)[C@@H]1F [Clofarabine] (1000 nM)	12.1
CC(C)C(=O)Nc1ccc([N+](=O)[O-])c(C(F)(F)F)c1 [Flutamide] (10000 nM)	100
Cc1c(N)nc([C@H](CC(N)=O)NC[C@H](N)C(N)=O)nc1C(=O)N[C@H](C(=O)N[C@H](C)[C@@H](O)[C@H](C)C(=O)N[C@H](C(=O)NCCc1nc(-c2nc(C(=O)NCCC[S+](C)C)cs2)cs1)[C@@H](C)O)[C@@H](OC1OC(CO)C(O)C(O)C1OC1OC(CO)C(O)C(OC(N)=O)C1O)c1cnc[nH]1 (stereo not given in full) [Bleomycin] (1000 nM)	44.5

Inquiry: Can you share its normalised response? I mean this compound: CC(C)C[C@H](NC(=O)[C@H](CCc1ccccc1)NC(=O)CN1CCOCC1)C(=O)N[C@@H](Cc1ccccc1)C(=O)N[C@@H](CC(C)C)C(=O)[C@@]1(C)CO1 [Carfilzomib] (10 nM)
Reply text: 35.9

Inquiry: Can you share its normalised response? I mean this compound: CC(C)C(=O)Nc1ccc([N+](=O)[O-])c(C(F)(F)F)c1 [Flutamide] (100 nM)
Reply text: 111

---

Tested on: MCF-10A
testDetails: normalised response (% of control), CellTox Green; higher = less cell death (100 = DMSO, 0 = benzethonium chloride kill control)
assayContext: incubation time: 72 h
measurementKind: normalised response (%)
Give the value in % but do not write % after it.

// known answers, use as guide
CN1CCc2c(c3ccccc3n2Cc2ccc(C(=O)NO)cc2)C1 [Tubastatin A] (1000 nM)	110
CCN(CC)CCOc1ccc(C(=C(Cl)c2ccccc2)c2ccccc2)cc1 [Clomifene] (10000 nM)	60.3

Next compound, please.
Inquiry: Can you share its normalised response? I mean this compound: COc1cc2c(Oc3ccc(NC(=O)C4(C(=O)Nc5ccc(F)cc5)CC4)cc3F)ccnc2cc1OCCCN1CCOCC1 [Foretinib] (10 nM)
Reply text: 107

---

Tested on: BT-549
testDetails: normalised viability (% of control), CellTiter-Blue; higher = more viable cells (about 100 = DMSO control)
assayContext: 10000 nM; incubation time: 72 h
measurementKind: normalised viability (%)
Give the value in % but do not write % after it.

// known answers, use as guide
CCN(CC)CCOc1ccc(C(=C(Cl)c2ccccc2)c2ccccc2)cc1	36
Cc1c(C(=O)Nc2ccc(N3C[C@@H](C)O[C@@H](C)C3)nc2)cccc1-c1ccc(OC(F)(F)F)cc1	97.3
C[C@@H](CN1CC(=O)NC(=O)C1)N1CC(=O)NC(=O)C1	76.8

Next compound, please.
Inquiry: Can you share its normalised viability? I mean this compound: NC(=O)NO [Hydroxyurea]
Reply text: 93.8
